Numbers sourced from ChEMBL document CHEMBL1145498.

Exercise: state measured ΔTm for each of the molecules provided.
Please reply with the bare figure in °C and do not write the unit itself.

Please respond with reported ΔTm (system Casein kinase I isoform gamma-1 (Homo sapiens) (UniProt Q9HCP0)) for "O=C(Nc1cccc(Nc2nccc(Nc3cccc(C(F)(F)F)c3)n2)c1)C1CC1" .
0.7

GET ΔTm | system: Casein kinase I isoform gamma-1 (Homo sapiens) (UniProt Q9HCP0) | item: "O=S(=O)(c1cccc2c(Cl)cccc12)N1CCCNCC1"
0.2

Fetch value of ΔTm on Casein kinase I isoform gamma-1 (Homo sapiens) (UniProt Q9HCP0) for "NCCNS(=O)(=O)c1cccc2c(Cl)cccc12" .
Sequence (Q9HCP0 whole entry, looked up, canonical isoform): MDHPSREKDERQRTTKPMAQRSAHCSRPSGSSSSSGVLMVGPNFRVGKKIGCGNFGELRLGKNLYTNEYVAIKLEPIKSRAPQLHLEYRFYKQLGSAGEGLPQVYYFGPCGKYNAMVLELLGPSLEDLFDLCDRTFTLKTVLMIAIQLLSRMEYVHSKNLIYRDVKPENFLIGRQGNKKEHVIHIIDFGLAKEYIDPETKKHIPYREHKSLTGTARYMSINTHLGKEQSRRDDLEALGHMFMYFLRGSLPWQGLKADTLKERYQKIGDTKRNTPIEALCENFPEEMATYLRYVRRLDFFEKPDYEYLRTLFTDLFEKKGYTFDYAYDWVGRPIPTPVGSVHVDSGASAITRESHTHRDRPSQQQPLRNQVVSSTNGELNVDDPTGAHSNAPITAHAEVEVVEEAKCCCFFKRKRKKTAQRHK
0.5

Provide ΔTm, recorded with Casein kinase I isoform gamma-1 (Homo sapiens) (UniProt Q9HCP0), of "Clc1ccc(Nc2nnc(Cc3ccncc3)c3ccccc23)cc1"
-0.2

Give reported ΔTm for "Nc1cc2ncnc(Nc3cccc(Br)c3)c2cc1N" (Casein kinase I isoform gamma-1 (Homo sapiens) (UniProt Q9HCP0))
0.3

Name the value of ΔTm reported for "CN(C)S(=O)(=O)c1ccc2c(c1)/C(=C/c1cc3c([nH]1)CCCC3)C(=O)N2" when tested on Casein kinase I isoform gamma-1 (Homo sapiens) (UniProt Q9HCP0).
0.9

Report value: ΔTm, system: Casein kinase I isoform gamma-1 (Homo sapiens) (UniProt Q9HCP0), molecule: "Nc1n[nH]c2nc3ccccc3nc12"
0.7

# assay system Casein kinase I isoform gamma-1 (Homo sapiens) (UniProt Q9HCP0): give ΔTm of "Nc1ncnc2c1c(I)cn2[C@@H]1O[C@H](CO)[C@@H](O)[C@H]1O"
2.5

Quote ΔTm with test system Casein kinase I isoform gamma-1 (Homo sapiens) (UniProt Q9HCP0) for "CCCCc1c(-c2ccc(O)cc2)[nH]c2nccnc12"
3

Using Casein kinase I isoform gamma-1 (Homo sapiens) (UniProt Q9HCP0) as the test system, report measured ΔTm of "Cc1cc(C=C2C(=O)C=CC2=O)cc(C)c1O" .
0.1

Please tell me the measured ΔTm for "O=C1c2ccccc2-c2n[nH]c3cccc1c23" ; system: Casein kinase I isoform gamma-1 (Homo sapiens) (UniProt Q9HCP0).
1.7
